- assay_protocol: Cytotoxicity against human […] cells by tetrazolium salt-based colorimetric assay
- Type: functional
- measurement_context: read-out: ED50 (the source's name)
Listing of recorded EC50 by entry.

The cases that follow already have their EC50 on record.
compound	endpoint	measured
O=C(O[C@@H]1[C@@H](c2c(O)cc(O)c3c2O[C@H](c2ccc(O)c(O)c2)[C@H](OC(=O)c2cc(O)c(O)c(O)c2)C3)c2c(O)cc(O)c([C@H]3c4c(O)cc(O)cc4O[C@H](c4ccc(O)c(O)c4)[C@@H]3OC(=O)c3cc(O)c(O)c(O)c3)c2O[C@@H]1c1ccc(O)c(O)c1)c1cc(O)c(O)c(O)c1	EC50	3.05 µg/mL
O=C1OCC2OC(=O)c3cc(O)c(O)c(O)c3-c3c(O)c(O)c(O)c4c3C(=O)OC(C2OC(=O)c2cc(O)c(O)c(O)c2-c2c1cc(O)c(O)c2O)C1OC(=O)c2c-4c(O)c(O)c(O)c2C1O (stereo not drawn)	EC50	0.58 µg/mL
O=C(O[C@@H]1O[C@@H]2COC(=O)c3cc(O)c(O)c(O)c3-c3c(cc(O)c(O)c3O)C(=O)O[C@@H]3[C@H]1OC(=O)c1cc(O)c(O)c4c1C1C(O)(O4)[C@]4(O)C[C@@]5(C(=O)O[C@H]6C(O)CO[C@@]65O)[C@]1(CC4=O)C(=O)O[C@@H]32)c1cc(O)c(O)c(O)c1 (stereo partly drawn)	EC50	2.62 µg/mL
Oc1cc(O)c2c(c1)O[C@H](c1ccc(O)c(O)c1)[C@@H](O)C2	EC50	> 10 µg/mL
O=C1O[C@H]2[C@H](OC(=O)c3cc(O)c(O)c(O)c3)[C@@H](OC(=O)c3cc(O)c(O)c4c3[C@@H]3C1=CC(=O)C(O)(O)C3(O)O4)[C@H](OC(=O)c1cc(O)c(O)c(O)c1)O[C@@H]2COC(=O)c1cc(O)c(O)c(O)c1 (stereo partly drawn)	EC50	> 10 µg/mL
O=C1O[C@H]2[C@H](O)[C@@H](CO)OC(O)[C@@H]2OC(=O)c2cc(O)c(O)c(O)c2-c2c1cc(O)c(O)c2O (stereo partly drawn)	EC50	> 10 µg/mL
Oc1cc(O)c2c(c1)O[C@H](c1ccc(O)c(O)c1)[C@H](O)C2 [(-)-EPICATECHIN]	EC50	> 10 µg/mL
O=C(O[C@@H]1O[C@@H]2COC(=O)c3cc(O)c(O)c(O)c3-c3c(cc(Oc4c(C(=O)O)cc(O)c(O)c4O)c(O)c3O)C(=O)O[C@H]([C@H]1O)[C@@H]2O)c1cc(O)c(O)c(O)c1	EC50	> 10 µg/mL
O=C1OC[C@H]2OC(=O)c3cc(O)c(O)c(O)c3-c3c(O)c(O)c(O)c4c3C(=O)O[C@H]([C@H]3OC(=O)C5C4=C(O)C(=O)C54Oc5cc(O)c6c(c5[C@H]34)O[C@H](c3ccc(O)c(O)c3)[C@@H](O)C6)[C@@H]2OC(=O)c2cc(O)c(O)c(O)c2-c2c1cc(O)c(O)c2O	EC50	> 10 µg/mL
O=C(OC[C@H]1O[C@@H](OC(=O)c2cc(O)c(O)c(O)c2)[C@H](O)[C@@H](O)[C@@H]1O)c1cc(O)c(O)c(O)c1	EC50	> 10 µg/mL

Param item = O=C1OC[C@H]2OC(O)[C@@H]3OC(=O)c4cc(O)c(O)c(O)c4-c4c(cc(O)c(O)c4O)C(=O)O[C@H]3[C@@H]2OC(=O)c2cc(O)c(O)c(O)c2-c2c1cc(O)c(O)c2O (stereo partly drawn) ; retrieve measured EC50. 2.74 µg/mL

Param item = O=C1OC[C@H]2OC(=O)c3cc(O)c(O)c(O)c3-c3c(O)c(O)c(O)c4c3C(=O)O[C@H]([C@H]3OC(=O)c5c-4c(O)c(O)c(O)c5[C@H]3O)[C@@H]2OC(=O)c2cc(O)c(O)c(O)c2-c2c1cc(O)c(O)c2O ; retrieve measured EC50. 0.79 µg/mL

Param item = O=C1O[C@H]2[C@@H]3OC(=O)c4cc(Oc5c(C(=O)O)cc(O)c(O)c5O)c(O)c(O)c4-c4c(cc(O)c(O)c4O)C(=O)OC[C@H]2O[C@@H](OC(=O)c2cc(O)c(O)c(O)c2)[C@@H]3OC(=O)c2cc(O)c(O)c3c2[C@@H]2C1=CC(=O)[C@](O)(O3)C2(O)O ; retrieve measured EC50. > 10 µg/mL

----------
- assay_protocol: Cytotoxicity against human […] cells by tetrazolium salt-based colorimetric assay
- Format: functional
- measurement_context: read-out: ED50 (the source's name)
endpoint: EC50 (µg/mL)
Express it in µg/mL; write the number only.

Param item = Oc1cc(O)c2c(c1)O[C@@]1(c3ccc(O)c(O)c3)Oc3cc(O)c4c(c3[C@@H]2[C@H]1O)O[C@H](c1ccc(O)c(O)c1)[C@H](O)[C@H]4c1c(O)cc(O)c2c1O[C@H](c1ccc(O)c(O)c1)[C@H](O)C2 ; retrieve measured EC50. 3.57

----------
- assay_protocol: Cytotoxicity against human […] cells by tetrazolium salt-based colorimetric assay
- Type: functional
- measurement_context: read-out: ED50 (the source's name)
Listing of recorded EC50 by entry.

compound	measured
O=C(O)C[C@H]1C(=O)O[C@H]2[C@H](OC(=O)c3cc(O)c(O)c(O)c3)[C@@H](OC(=O)c3cc(O)c(O)c4c3[C@H]1[C@H](O)C(=O)O4)[C@H](OC(=O)c1cc(O)c(O)c(O)c1)O[C@@H]2COC(=O)c1cc(O)c(O)c(O)c1	> 10 µg/mL
O=C(O[C@@H]1O[C@@H]2COC(=O)c3cc(O)c(O)c(O)c3-c3c(cc(O)c(O)c3O)C(=O)O[C@H]([C@H]1O)[C@@H]2O)c1cc(O)c(O)c(O)c1	> 10 µg/mL
O=C(O[C@H]1[C@H](O)C[C@](O)(C(=O)O)C[C@H]1OC(=O)c1cc(O)c(O)c(O)c1)c1cc(O)c(O)c(O)c1	0.53 µg/mL
O=C(OC[C@H]1OC(O)[C@@](O)(COC(=O)c2cc(O)c(O)c(O)c2)[C@@H]1OC(=O)c1cc(O)c(O)c(O)c1)c1cc(O)c(O)c(O)c1 (stereo not given in full)	> 10 µg/mL

Param item = O=C(OC[C@H]1O[C@@H](O)[C@H](OC(=O)c2cc(O)c(O)c(O)c2)[C@@H](OC(=O)c2cc(O)c(O)c(O)c2)[C@@H]1OC(=O)c1cc(O)c(O)c(O)c1)c1cc(O)c(O)c(O)c1 ; retrieve measured EC50. > 10 µg/mL

----------
- assay_protocol: Cytotoxicity against human […] cells by tetrazolium salt-based colorimetric assay
- Assay type: functional
- measurement_context: read-out: ED50 (the source's name)
Listing of recorded EC50 by entry.
Express it in µg/mL; write the number only.

The cases that follow already have their EC50 on record.
compound	unit_info	measured
Oc1cc(O)c2c(c1)O[C@@]1(c3ccc(O)c(O)c3)Oc3cc(O)c4c(c3[C@@H]2[C@H]1O)O[C@H](c1ccc(O)c(O)c1)[C@H](O)C4 [PROANTHOCYANIDIN A2]	µg/mL	5.5
O=C(O[C@@H]1O[C@@H]2COC(=O)c3cc(O)c(O)c(O)c3-c3c(cc(O)c(O)c3O)C(=O)O[C@H]2[C@@H]2OC(=O)c3cc(O)c(O)c(O)c3-c3c(cc(O)c(O)c3O)C(=O)O[C@@H]12)c1cc(O)c(O)c(O)c1	µg/mL	0.21
O=C(O[C@@H]1Cc2c(O)cc(O)cc2O[C@@H]1c1ccc(O)c(O)c1)c1cc(O)c(O)c(O)c1 [EPICATECHIN GALLATE]	µg/mL	0.55

Param item = O=C1OC[C@H]2OC(=O)c3cc(O)c(O)c(O)c3-c3c(O)c(O)c(O)c4c3C(=O)O[C@H]([C@@H]3OC(=O)c5c-4c(O)c(O)c(O)c5[C@@H]3c3c(O)cc(O)c4c3O[C@H](c3ccc(O)c(O)c3)[C@@H](O)C4)[C@H]2OC(=O)c2cc(O)c(O)c(O)c2-c2c1cc(O)c(O)c2O [ACUTISSIMIN A] ; retrieve measured EC50. 0.61

----------
- assay_protocol: Cytotoxicity against human […] cells by tetrazolium salt-based colorimetric assay
- Assay type: functional
- measurement_context: read-out: ED50 (the source's name)
endpoint: EC50

The cases that follow already have their EC50 on record.
compound	endpoint	measured
O=C1O[C@@H]2[C@@H](OC(=O)c3cc(O)c(O)c(O)c3-c3c1cc(O)c(O)c3O)[C@H](O)O[C@@H]1COC(=O)c3cc(O)c(O)c(O)c3-c3c(O)c(O)c4oc(=O)c5c(c(O)c(O)c6oc(=O)c3c4c65)-c3c(cc(O)c(O)c3O)C(=O)O[C@@H]21 [PUNICALAGIN]	EC50	> 10 µg/mL
O=C(O[C@@H]1O[C@@H]2COC(=O)c3cc(O)c(O)c(O)c3-c3c(cc(O)c(O)c3O)C(=O)O[C@H]2[C@H](OC(=O)c2cc(O)c(O)c(O)c2)[C@H]1OC(=O)c1cc(O)c(O)c(O)c1)c1cc(O)c(O)c(O)c1 [EUGENIIN]	EC50	2.74 µg/mL
O=C1OC[C@H]2OC(=O)c3cc(O)c(O)c(O)c3-c3c(O)c(O)c(O)c4c3C(=O)O[C@H]([C@H]3OC(=O)c5c-4c(O)c(O)c(O)c5[C@@H]3C3(O)OC[C@H](O)[C@@H](O)[C@H]3O)[C@@H]2OC(=O)c2cc(O)c(O)c(O)c2-c2c1cc(O)c(O)c2O (some centres undefined) [GRANDININ]	EC50	0.1 µg/mL
O=C(O[C@@H]1C[C@](O)(C(=O)O)C[C@@H](OC(=O)c2cc(O)c(O)c(O)c2)[C@H]1OC(=O)c1cc(O)c(O)c(O)c1)c1cc(O)c(O)c(O)c1	EC50	> 10 µg/mL
O=C1O[C@H]([C@@H]2OC(=O)c3cc(O)c(O)c(O)c3-c3c(O)c(O)c4oc(=O)c5c(c(O)c(O)c6oc(=O)c3c4c65)-c3c(cc(O)c(O)c3O)C(=O)OC[C@H]2O)[C@@H]2OC(=O)c3c(c(O)c(O)c(O)c3[C@H]2O)-c2c1cc(O)c(O)c2O [PUNICACORTEIN C]	EC50	3.86 µg/mL
O=C(O)C1=C[C@@H](O)[C@@H](O)[C@H](OC(=O)c2cc(O)c(O)c(OC(=O)c3cc(O)c(O)c(O)c3)c2)C1	EC50	> 10 µg/mL

Param item = O=C(OC[C@H]1O[C@@H](OC(=O)c2cc(O)c(O)c(O)c2)[C@H](OC(=O)c2cc(O)c(O)c(O)c2)[C@@H](OC(=O)c2cc(O)c(O)c(O)c2)[C@@H]1O)c1cc(O)c(O)c(O)c1 ; retrieve measured EC50. > 10 µg/mL

Param item = Oc1cc(O)c2c(c1)O[C@H](c1ccc(O)c(O)c1)[C@H](O)[C@H]2c1c(O)cc(O)c2c1O[C@H](c1ccc(O)c(O)c1)[C@H](O)[C@H]2c1c(O)cc(O)c2c1O[C@H](c1ccc(O)c(O)c1)[C@H](O)C2 [PROCYANIDIN C1] ; retrieve measured EC50. > 10 µg/mL

Param item = O=C(O[C@H]1[C@H](O)C[C@](OC(=O)c2cc(O)c(O)c(O)c2)(C(=O)O)C[C@H]1OC(=O)c1cc(O)c(O)c(O)c1)c1cc(O)c(O)c(O)c1 ; retrieve measured EC50. > 10 µg/mL
